- measurement-protocol: P-glycoprotein substrates identified in KB-8-5-11 adenocarcinoma cell line, qHTS therapeutic library screen (AID 1346987); note: nearly all actives have a fitted effect of over 65% in size
- experimental-context: KB-8-5-11 (P-gp overexpressing) viability, CellTiter-Glo, 72 h; series mostly up to 44.5 µM
Results filed as inconclusive are left out. The source made the active and inactive calls. Calls come from the whole dose curve; as a rule, active = well fitted inhibition curve with a large enough effect; inconclusive = small, poorly fitted or top-dose-only effect; inactive = flat fitted curve, though single readings scatter.
Possible outcomes: true (1) = active, false (0) = inactive

Nc1ccccc1N    false (0)
CC1(C)CCCC2(C)C(CO)C(CO)=CCC12 (stereo not given)    false (0)
C=C1CN(Cc2ccc(C(=O)Nc3ccccc3N)cc2)C(=O)c2ccccc21    true (1)
COc1cc2c(cc1OC)-c1[nH]nc(Nc3cccc(F)c3)c1C2    true (1)
C=CC1C(OC2OC(CO)C(O)C(O)C2O)OC=C2C(=O)N3C(C(=O)O)Cc4c([nH]c5ccccc45)C3CC21 (stereo not given)    false (0)
COc1cc(O)c2c(c1)C1=C[C@H](O)[C@@H](O)C[C@]1(C)OC2=O    false (0)
CC(C)c1cc(C(=O)N2CC[C@@H](NC(=O)C3CC3)C2)n[nH]1    false (0)
CC(C)=CCC(O)/C(C)=C/CO[C@@H]1O[C@H](CO)[C@@H](O)[C@H](O)[C@H]1O (stereo not given in full)    false (0)
C/C=C/C(O)C1OC(=O)CC1Nc1ccc(C(=O)O)cc1 (stereo not given)    false (0)
CNC(=S)NS(=O)(=O)c1cc(CCNC(=O)c2cc(Cl)ccc2OC)ccc1OC    false (0)
